Cited source: paper PMC4404319

System: P-gp
Assay: in vitro
Settings: human, Caco-2
Measurement kind: Papp B→A at 2 h, 5 μM (×10⁻⁶ cm/s)
// return numeric value only (unit: ×10⁻⁶ cm/s, not printed)

Noted for CN1CCN(c2cc(-c3ccncc3)c(-c3ccc4ccccc4c3)nn2)CC1 : its Papp B→A at 2 h, 5 μM reads 31.2

----------
Tested on: BCRP
Experiment: in vitro
Conditions: dog
Measurement kind: Papp B→A at 2 h, 5 μM (×10⁻⁶ cm/s)
Expressed in ×10⁻⁶ cm/s, but write only the number.

For reference, reported Papp B→A at 2 h, 5 μM for CN1CCN(c2cc(-c3ccncc3)c(-c3ccc4ccccc4c3)nn2)CC1 stands at 25.1

----------
Experiment: in vivo
Settings: male, Sprague-Dawley, rat, 5 mg/kg
Measurement kind: half-life

Sure, the documented half-life for CN1CCN(c2cc(-c3ccncc3)c(-c3ccc4ccccc4c3)nn2)CC1 is > 3 h

----------
System: P-gp
Experiment: in vitro
Details: human, Caco-2
Measurement kind: recovery (%)
// note: answer is a bare numeric in %

The reported value for CN1CCN(c2cc(-c3ccncc3)c(-c3ccc4ccccc4c3)nn2)CC1 in terms of recovery is 71

----------
Tested on: BCRP
Assay: in vitro
Conditions: dog
Measurement kind: recovery (%)
Supply the numeric figure in %, leaving out any unit text.

Sure, the documented recovery for CN1CCN(c2cc(-c3ccncc3)c(-c3ccc4ccccc4c3)nn2)CC1 [MW150] is 66

----------
Assay: in vitro
Conditions: rat, liver microsomes, pH 7.4
Measurement kind: half-life at 1 μM (min)
Write the number in min without appending the unit.

Entry CN1CCN(c2cc(-c3ccncc3)c(-c3ccc4ccccc4c3)nn2)CC1 [MW150] , half-life at 1 μM reported as 43

----------
System: BCRP
Assay: in vitro
Settings: dog
Measurement kind: Papp A→B at 2 h, 5 μM (×10⁻⁶ cm/s)
Write the number in ×10⁻⁶ cm/s without appending the unit.

Note to self: Papp A→B at 2 h, 5 μM recorded for CN1CCN(c2cc(-c3ccncc3)c(-c3ccc4ccccc4c3)nn2)CC1 was 20.7
